test: Protein binding rate test (human serum, equilibrium dialysis); type: in vitro ADME; conditions: test compound 0.001 mmol/L, equilibrium dialysis 37° C. 6 hours
quantity.kind: fraction unbound at 6 h, 0.001 mmol/L

Study these solved cases before continuing.
Cc1cc(N2CC(C)(C)N[C@@H]3CCCC[C@H]32)ccc1OC(F)(F)CO [Example 32] :: 0.482
CC1(C)CN(c2ccc(OCCO)c(Cl)c2)[C@@H]2CCCC[C@H]2N1 [Example 28] :: 0.616
CC1(C)CN(c2ccc(OCCO)c(Cl)c2)[C@H]2CCCC[C@@H]2N1 [Example 27] :: 0.585
CC1(C)CN(c2ccc(OCCO)c3occc23)[C@H]2CCCC[C@H]2N1 [Example 51] :: 0.553

a. Cc1cc(N2CC(C)(C)N[C@@H]3CCCC[C@@H]32)cc(F)c1OC(F)(F)CO [Example 58]
b. CC1(C)CN(c2cc(F)c(OCCO)c(F)c2)[C@H]2CCCC[C@H]2N1 [Example 36]
## Input Sorting ascending by fraction unbound at 6 h, 0.001 mmol/L, which comes first: a or b ? Answer by stating the label of the chosen item.
## Output a
(a: 0.358, b: 0.638)

1. CC1(C)CN(c2ccc(OC(F)(F)CO)c(F)c2F)[C@H]2CCCC[C@H]2N1 [Example 73]
2. OCCOc1c(F)cc(N2CC3(CCC3)N[C@H]3CCCC[C@@H]32)cc1Cl [Example 6]
## Input Sorting ascending by fraction unbound at 6 h, 0.001 mmol/L, which comes first: 1 or 2 ? Answer by stating the label of the chosen item.
## Output 1

A. Cc1c(N2CC(C)(C)N[C@@H]3CCCC[C@@H]32)ccc(OC(F)(F)CO)c1F [Example 57]
B. CN1[C@H]2CCCC[C@@H]2N(c2ccc(OC(F)(F)CO)cc2)CC1(C)C [Example 37]
## Input Of the two listed items, A and B , which carries the larger fraction unbound at 6 h, 0.001 mmol/L figure? Answer by stating the label of the chosen item.
## Output B
(B: 0.529, A: 0.294)

A. CC1(C)CN(c2cc(F)c(OC(F)(F)CO)cc2F)[C@H]2CCCC[C@H]2N1 [Example 71]
B. CC1(C)CN(c2ccc(OCCO)cc2Cl)[C@H]2CCCC[C@H]2N1 [Example 64]
C. C[C@@H]1CN(c2cc(F)c(OCCO)c(Cl)c2)[C@H]2CCCC[C@@H]2N1 [Example 17]
## Input Put the entries in order of fraction unbound at 6 h, 0.001 mmol/L, starting with the largest number. Write the labels out in the order the request specifies.
## Output C, B, A
(C: 0.727, B: 0.499, A: 0.285)

I. CC1(C)CN(c2ccc(OC(F)(F)CO)c(Cl)c2F)[C@@H]2CCCC[C@H]2N1 [Example 80]
II. CC1(C)CN(c2ccc(OCCO)c3occc23)[C@@H]2CCCC[C@@H]2N1 [Example 50]
## Input Of the two listed items, I and II , which carries the larger fraction unbound at 6 h, 0.001 mmol/L figure? Answer by stating the label of the chosen item.
## Output II
(II: 0.551, I: 0.21)

* * *

biological target: serotonin (5-HT) uptake (Rattus norvegicus, UniProt P31652); construct: used as crude synaptosomal fraction; from tissue; host or cells: rat frontal cortex, crude synaptosomal fraction; assay: Serotonin (5-HT) uptake inhibitory activity in rat brain synaptosome; assay type: biochemical; conditions: rat frontal cortex synaptosome, tritium-labeled 5-HT 8 nM; read-out: IC50 (nM), serotonin (5-HT) uptake inhibition
Sequence (P31652 whole entry): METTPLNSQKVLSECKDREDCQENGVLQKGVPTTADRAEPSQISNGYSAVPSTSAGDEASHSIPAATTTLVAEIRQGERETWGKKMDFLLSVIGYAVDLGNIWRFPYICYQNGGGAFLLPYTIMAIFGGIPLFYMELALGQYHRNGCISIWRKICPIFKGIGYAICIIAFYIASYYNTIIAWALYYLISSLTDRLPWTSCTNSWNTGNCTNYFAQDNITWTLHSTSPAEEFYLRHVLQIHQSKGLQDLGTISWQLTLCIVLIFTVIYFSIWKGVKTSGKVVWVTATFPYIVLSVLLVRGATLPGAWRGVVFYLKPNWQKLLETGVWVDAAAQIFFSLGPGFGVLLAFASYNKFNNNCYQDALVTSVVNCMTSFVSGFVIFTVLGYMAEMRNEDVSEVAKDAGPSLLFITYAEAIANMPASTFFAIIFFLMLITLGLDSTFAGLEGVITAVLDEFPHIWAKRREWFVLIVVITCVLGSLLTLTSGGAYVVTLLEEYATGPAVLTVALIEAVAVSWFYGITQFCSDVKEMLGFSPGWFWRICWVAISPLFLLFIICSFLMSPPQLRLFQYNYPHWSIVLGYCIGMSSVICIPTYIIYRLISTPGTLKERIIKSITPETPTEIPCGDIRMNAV
quantity.kind: IC50 (nM)

a. Cc1cc(N2CC(C)(C)N[C@@H]3CCCC[C@H]32)ccc1OC(F)(F)CO
b. CC1(C)CN(c2ccc(OCCO)c3occc23)[C@H]2CCCC[C@H]2N1
c. Cc1cc(N2CC(C)(C)N[C@H]3CCCC[C@@H]32)ccc1OC(F)(F)CO
d. CC1(C)CN(c2ccc(OC(F)(F)CO)cc2F)[C@H]2CCCC[C@H]2N1
## Input Arrange items by their IC50 values in increasing order. Write the labels out in the order the request specifies.
## Output d, b, c, a
